protocol-notes: activity coefficient (dimensionless); of the first substance listed, at infinite dilution; xn = mol fraction of the nth substance listed
study-conditions: 328.15 K; 100 kPa; Liquid; Chromatography; x1 = 0
Criterion: activity coefficient meeting or surpassing 1. Met: 1. Not met: -1.

{"compound": "CCC[N+](=O)[O-] [1-nitropropane] + CCCC[P+](CC)(CCCC)CCCC.CCOP(=O)([O-])OCC", "cat": -1}
{"compound": "CCCCCCCCCC [decane] + CCCC[P+](CC)(CCCC)CCCC.CCOP(=O)([O-])OCC", "cat": 1}
{"compound": "C#CCCCCCC [1-octyne] + CCCC[P+](CC)(CCCC)CCCC.CCOP(=O)([O-])OCC", "cat": 1}
{"compound": "C1CCOC1 [tetrahydrofuran] + CCCC[P+](CC)(CCCC)CCCC.CCOP(=O)([O-])OCC", "cat": -1}
{"compound": "C1COCCO1 [1,4-dioxane] + CCCC[P+](CC)(CCCC)CCCC.CCOP(=O)([O-])OCC", "cat": 1}
{"compound": "COC(C)(C)C [2-methoxy-2-methylpropane] + CCCC[P+](CC)(CCCC)CCCC.CCOP(=O)([O-])OCC", "cat": 1}
